System: HSkMC
assay_overview: cytotoxicity call (relative viability < 0.9)
setup_conditions: 10 µM
Hit rate of the full screen: of about 39,000 compounds, about 1,500 (3.8%) were called active. The full list was thinned out, with actives kept by preference.
# valid calls are label 1 for active, label 0 for inactive; nothing else

Use the examples below as a reference point.
{"molecule": "C[C@@H]1CCCCO[C@@H](CN(C)Cc2ccncc2)[C@H](C)CN([C@H](C)CO)C(=O)c2cc(NC(=O)Nc3ccc(C(F)(F)F)cc3)ccc2O1", "group_label": "label 0"}
{"molecule": "C[C@@H]1CN([C@H](C)CO)C(=O)c2cccc(NC(=O)Nc3ccccc3)c2O[C@@H]1CN(C)Cc1ccc(C(F)(F)F)cc1", "group_label": "label 0"}
{"molecule": "C[C@H](CO)N1C[C@H](C)[C@H](CN(C)Cc2ccccc2)Oc2c(NC(=O)Nc3ccc(C(F)(F)F)cc3)cccc2C1=O", "group_label": "label 0"}

Lookup: Field: outcome | Entry: C[C@@H]1CN([C@@H](C)CO)C(=O)c2cc(NC(=O)Nc3ccc(C(F)(F)F)cc3)ccc2O[C@@H](C)CCCCO[C@H]1CN(C)Cc1ccc(Cl)c(Cl)c1
Found: label 0

Lookup: What did this assay record as the result for Cc1cc(C(C)(C)CC(C)(C)C)ccc1OCCOCC[N+](C)(C)Cc1ccccc1.[Cl-] ?
Found: label 1

Lookup: Which outcome did this test record for the molecule C[N+](C)(CCOc1ccccc1)Cc1ccccc1.O=C(O)c1cc2ccccc2c(Br)c1O ?
Found: label 0

====

Tested on: HSkMC
assay_overview: cytotoxicity call (relative viability < 0.9)
setup_conditions: 10 µM
Screen size: about 39,000 compounds; about 1,500 (3.8%) were called active. This excerpt belongs to a sample that is enriched for actives.
result_type: cytotoxicity call

{"substance_smiles": "C[C@@H]1CN([C@@H](C)CO)C(=O)c2cc(NC(=O)C3CCCCC3)ccc2O[C@@H]1CN(C)Cc1ccc(C(F)(F)F)cc1", "observed_result": "inactive"}
{"substance_smiles": "C[C@H]1CN([C@@H](C)CO)C(=O)CCCn2cc(nn2)CO[C@@H]1CN(C)Cc1cccc2c1OCCCO2", "observed_result": "inactive"}
{"substance_smiles": "C[C@@H]1CN([C@H](C)CO)S(=O)(=O)c2ccc(-c3cncnc3)cc2O[C@@H]1CN(C)C(=O)C1CCCCC1", "observed_result": "inactive"}
{"substance_smiles": "C[C@H]1CN([C@@H](C)CO)C(=O)Cc2cc(NS(=O)(=O)c3cccs3)ccc2O[C@@H]1CN(C)Cc1ccncc1", "observed_result": "inactive"}

====

Tested on: HSkMC (human skeletal muscle cells)
assay_overview: cytotoxicity call (relative viability < 0.9)
setup_conditions: 10 µM
The campaign covered roughly 39,000 compounds. About 1,500 (3.8%) were called active. Only a selection was taken, and actives are over-represented in it overall.
Use one of these outcomes when replying: label 1 (active), label 0 (inactive)

Record excerpt, results attached:
{"substance_smiles": "Cc1ccc(S(=O)(=O)Nc2ccc3c(c2)CC(=O)N([C@H](C)CO)C[C@H](C)[C@H](CN(C)C(=O)Nc2cccc4ccccc24)O3)cc1", "group_label": "label 0"}
{"substance_smiles": "C[C@H](CO)N1C[C@H](C)[C@H](CN(C)CC2CCCCC2)OCCCC[C@H](C)Oc2ccc(NC(=O)Nc3ccc(F)cc3)cc2C1=O", "group_label": "label 1"}
{"substance_smiles": "C[C@H]1CCCCO[C@@H](CN(C)CC2CCCCC2)[C@@H](C)CN([C@@H](C)CO)C(=O)c2cc(NC(=O)Nc3ccc(F)cc3)ccc2O1", "group_label": "label 0"}
{"substance_smiles": "Cc1ccc(C(=O)Nc2ccc(S(=O)(=O)O)c3cc(S(=O)(=O)O)cc(S(=O)(=O)O)c23)cc1NC(=O)c1cccc(NC(=O)Nc2cccc(C(=O)Nc3cc(C(=O)Nc4ccc(S(=O)(=O)O)c5cc(S(=O)(=O)O)cc(S(=O)(=O)O)c45)ccc3C)c2)c1", "group_label": "label 0"}

Lookup: Outcome? CCOC(=O)[C@H]1C/C=C/C[C@H](C(=O)OCC)C(=O)O[C@H]2[C@@H](OC)O[C@H](COC(=O)NCCCCCC(=O)NO)[C@@H](OC(=O)Nc3ccccc3)[C@@H]2OC1=O
Found: label 0

Lookup: Assay result, entry COc1ccc(CN(C)C[C@@H]2OCCCC[C@H](C)Oc3ccc(NC(=O)C4CCCCC4)cc3C(=O)N([C@@H](C)CO)C[C@H]2C)cc1 — outcome?
Found: label 0

Lookup: I would be grateful if you could indicate the recorded call for C[C@@H]1CN([C@@H](C)CO)C(=O)c2cccc(NC(=O)Nc3ccc(C(F)(F)F)cc3)c2O[C@H]1CN(C)C(=O)Nc1ccc2c(c1)OCO2 .
Found: label 0
